Let's look at some compounds and their measured melting point.

Data request: Supply recorded melting point for O=C(c1ccc2[nH]c(-c3ccc[nH]c3=O)c(-c3ccc(-c4ccccc4)cc3)c2c1)N1CCCCC1 here.
Data returned: 170 to 182 °C

Data request: Quickly give me recorded melting point for O=C(Nc1ccccc1Cl)c1ccc2[nH]c(-c3ccc[nH]c3=O)c(-c3ccccc3)c2c1
Data returned: > 300 °C

Data request: Assign melting point to the following record: O=C(Nc1cccc(Cl)c1)c1ccc2[nH]c(-c3ccc[nH]c3=O)c(-c3ccccc3)c2c1
Data returned: 244 to 250 °C

Data request: Return melting point for the following compound: O=c1[nH]cccc1-c1[nH]c2ccccc2c1C1CCN(Cc2cccc3ccccc23)CC1
Data returned: 205 to 206 °C

Below: the item to evaluate.
Data request: In one line, give reported melting point of the entry COc1ccc(NC(=O)c2ccc3[nH]c(-c4ccc[nH]c4=O)c(-c4ccc(-c5ccccc5)cc4)c3c2)cc1 .
Data returned: 154 to 162 °C
